Each recorded value in this set is attributed to ChEMBL document CHEMBL3600312.

# tested.system: Peroxisome proliferator-activated receptor alpha (Homo sapiens, UniProt Q07869)
# Sequence (Q07869 whole entry): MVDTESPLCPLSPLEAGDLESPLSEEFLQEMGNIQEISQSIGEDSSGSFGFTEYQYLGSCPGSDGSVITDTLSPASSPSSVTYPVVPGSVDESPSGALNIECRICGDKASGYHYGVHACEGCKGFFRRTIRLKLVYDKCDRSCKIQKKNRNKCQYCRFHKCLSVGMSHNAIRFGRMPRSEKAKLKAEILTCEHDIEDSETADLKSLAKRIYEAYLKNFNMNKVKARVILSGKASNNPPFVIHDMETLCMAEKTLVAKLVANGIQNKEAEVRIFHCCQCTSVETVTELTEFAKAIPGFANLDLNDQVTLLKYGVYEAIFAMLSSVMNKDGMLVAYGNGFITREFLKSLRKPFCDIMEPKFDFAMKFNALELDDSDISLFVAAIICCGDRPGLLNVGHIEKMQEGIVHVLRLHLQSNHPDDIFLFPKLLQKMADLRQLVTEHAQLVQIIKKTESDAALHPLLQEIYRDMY
# experimental.protocol: Agonist activity at human PPARalpha transfected in human MCF7 cells after 16 hrs by luciferase reporter gene assay
pEC50: −log10 of the molar value.
Could you please report measured pEC50 for the items listed next?

Known results for compounds:
O=C(NCc1ccccc1)c1ccc(NC(=O)c2cccc(CN3C(=O)OC[C@H]3Cc3ccccc3)c2)cc1: < 4.00
CCCCCNC(=O)c1ccc(NC(=O)c2cccc(CN3C(=O)OC[C@@H]3Cc3ccccc3)c2)cc1: < 4.00

// batch mode: one pEC50 value per listed entry
1. O=C(NCc1ccc(C(F)(F)F)cc1)c1ccc(NC(=O)c2cccc(CN3C(=O)OC[C@H]3Cc3ccccc3)c2)cc1
2. O=C(NCC1CCCCC1)c1ccc(NC(=O)c2cccc(CN3C(=O)OC[C@H]3Cc3ccccc3)c2)cc1
3. O=C(NCc1ccc(C(F)(F)F)cc1)c1ccc(NC(=O)c2cccc(CN3C(=O)OC[C@@H]3Cc3ccccc3)c2)cc1

1. < 4.00
2. < 4.00
3. < 4.00
